Task for the reader: assign each of the following molecules its reported IC50.
- Tested on: OPM2
- assay.summary: Anti-proliferative effect (CellTiter-Glo, 72 h), OPM2
- Type: cell-based
- reported.conditions: Homo sapiens, OPM-2, 72 h, OPM2 cells, median, read-out: IC50 antiproliferation assay OPM2 [M] (median)

{"molecule": "CC(C)OCc1nn(C)c2c1-c1cccc3c(CCCOc4cccc5c4CCCC5)c(C(=O)O)n(c13)CCCCOC2 (racemic)", "system.name": "OPM2", "assay.result": "> 3.3e-05 M"}

For every record below, what is its IC50?
1. CN1CCCCn2c(C(=O)O)c(CCCOc3cccc4ccccc34)c3cccc(c32)-c2cnn(C)c2C1 (racemic)
2. Cn1nc(COc2ccc(S(C)(=O)=O)cc2)c2c1COCC=CCn1c(C(=O)O)c(CCCOc3cccc4ccccc34)c3cccc-2c31 (single isomer, unassigned)

Output line:
1. > 3.3e-05 M
2. 3.2e-05 M

* * *

- Tested on: SUDHL10
- assay.summary: Induction of caspase-3/7 activity (Caspase-Glo 3/7), SUDHL10
- Assay type: cell-based
- reported.conditions: Homo sapiens, SU-DHL10, 3 h, caspase-3/7 induction, SUDHL10 cells, 3 h treatment; median
- Source text: Induction of Caspase-317 Activity Upon Treatment of Cells with Selected Compounds The BH3-domain of MCL-1 sequesters pro-apoptotic proteins, thereby inhibiting apoptosis. In contrast, MCL-1 inhibitors are expected to antagonize this effect leading to an increase in apoptosis, which can be determined by measuring the activity of caspase-3/7. […] For the evaluation of the results, the background measured with “medium-only” was subtracted from all other values. […]
assay.endpoint: EC50 (µM)
Answers are plain numbers, in µM.

{"compound": "Cn1nc(COc2ccc(C3(O)CCOCC3)cc2)c2c1COCCCCn1c(C(=O)O)c(CCCOc3cccc4ccccc34)c3cccc-2c31 (racemic)", "assay.result": 10.7}

For every record below, what is its EC50?
1. CCc1nn(C)c2c1-c1c(C)ccc3c(CCCOc4cc(C)c(Cl)c(C)c4)c(C(=O)O)n(c13)CCCCOC2 (racemic)
2. Cc1c2c(nn1C)COCCCCn1c(C(=O)O)c(CCCOc3cccc4ccccc34)c3cccc-2c31 (racemic)

Output line:
13.2
7.51

* * *

- system.name: UniProt:Q07820
- Sequence (Q07820 whole entry): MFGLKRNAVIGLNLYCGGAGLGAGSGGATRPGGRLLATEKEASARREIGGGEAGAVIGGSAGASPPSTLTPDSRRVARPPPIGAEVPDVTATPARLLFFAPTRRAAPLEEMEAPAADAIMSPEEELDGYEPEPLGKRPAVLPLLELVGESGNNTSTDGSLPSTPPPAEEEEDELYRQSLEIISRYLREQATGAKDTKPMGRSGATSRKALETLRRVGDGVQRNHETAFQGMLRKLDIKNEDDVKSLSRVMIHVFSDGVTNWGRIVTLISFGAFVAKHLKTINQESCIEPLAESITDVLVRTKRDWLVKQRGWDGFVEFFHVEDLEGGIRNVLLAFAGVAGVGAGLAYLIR
- assay.summary: Protein-protein interaction assay MCL-1/Noxa BH3 peptide (MCL-1 assay), TR-FRET
- Type: binding
- reported.conditions: MBP-MCL-1 / Noxa BH3-derived peptide, median
- Procedure: Protein-Protein Interaction Assay: MCL-1/Noxa BH3 Peptide (MCL-1 Assay) […] In the assay 11 different concentrations of each compound (0.1 nM, 0.33 nM, 1.1 nM, 3.8 nM, 13 nM, 44 nM, 0.15 μM, 0.51 μM, 1.7 μM, 5.9 μM and 20 μM) were typically measured as duplicates in the same microtiter plate. For that, 100-fold concentrated DMSO solutions were prepared by serial dilutions (1:3.4) of a 2 mM stock solution in a clear, 384-well microtiter plate (Greiner Bio-One, Frickenhausen, Germany). […]
assay.endpoint: IC50 (µM)
Numbers only, in µM.

{"compound": "CC(C)OCc1nn(C)c2c1-c1cccc3c(CCCOc4cccc5ccccc45)c(C(=O)O)n(c13)CCCN(C)C2 (single isomer, unassigned) [Example 1-72]", "IC50, µM": 0.0126}

For every record below, what is its IC50?
1. CC(=O)N1CCN(c2ccc(OCc3nn(C)c4c3-c3cccc5c(CCCOc6cccc7ccccc67)c(C(=O)O)n(c35)CCCCOC4)cc2)CC1 (single isomer, unassigned; enantiomer 2) [Example 1-26]
2. CN1CCCn2c(C(=O)O)c(CCCOc3cccc4ccccc34)c3cccc(c32)-c2c(CN3CCOCC3=O)nn(C)c2C1 (racemic)
3. CCc1c2c(nn1C)COCCCCn1c(C(=O)O)c(CCCOc3cccc4ccccc34)c3ccc(C)c-2c31 (racemic) [Example 153]
4. CCOCc1nn(C)c2c1-c1cccc3c(CCCOc4cccc5c4CCCC5)c(C(=O)O)n(c13)CCCCOC2 (single isomer, unassigned; enantiomer 2) [Example 172]

Output line:
[0.00163, 0.289, 0.0048, 0.144]

Input line: Missing value: IC50, UniProt:Q07820, entry Cn1nc(COc2ccc(N3CCOCC3)cc2)c2c1COCC=CCn1c(C(=O)O)c(CCCOc3cccc4ccccc34)c3cccc-2c31 (single isomer, unassigned; enantiomer 1) [Example 119] . Fill in?
Output line: 0.0213
